The origin of these recorded values is a melting point compilation (Tetko et al.; mined from patent text by program, amines drawn as free bases though some values may be those of a salt).

# melting point per entry

1. O=C(c1ccccc1)c1ccc(C(=O)N2Cc3ccccc3Oc3ccccc32)cc1    103 to 106 °C
2. Cc1cccc(Cl)c1C=NS    143 °C
3. Cc1oc(-c2ccccc2)nc1COc1cccc(COc2cc(CCC(=O)O)n(-c3ccccc3)n2)c1    137 to 138 °C
4. CC(C)(C)c1nc2cc(N3CCCC3)c(N=C=S)cc2s1    89 to 90 °C
5. Cc1ccc(C#CC(C)N(O)C(N)=O)cc1 (centres undefined)    144 °C

In: Report melting point for COc1ccc(-c2cc(C(=O)NCCCCCCc3ccccc3)cc(-c3cccc(C(F)(F)F)c3)c2OCCO)cc1 please.
Out: 153 to 159 °C

In: Which melting point is reported for this molecule? Cc1ccc(-n2nc(C(C)(C)C)cc2NC(=O)Nc2ccc(-c3cnc4c(c3)NC(=O)CO4)c3ccccc23)cc1
Out: > 200 °C

In: Would you mind telling me what melting point value was observed for CNC1CC=C(c2c[nH]c3cc([N+](=O)[O-])ccc23)CC1 (centres undefined) ?
Out: 170 to 172 °C

In: Entry OC(COc1ccc(F)cc1)CN1CCC(O)(c2ccc(Cl)cc2)CC1 (centres undefined) : reported melting point = ?
Out: 103 to 105 °C

In: Can you share its melting point? I mean this molecule: CCOC(=O)C1=C(N)N=C(N)C(C)(C(=O)OCC)C1c1cccc([N+](=O)[O-])c1 (centres undefined)
Out: 142 °C

In: What measured melting point goes with CNS(=O)(=O)c1ccc(C)c(CCCOCCn2cnc3c(N)nc4ccccc4c32)c1 ?
Out: 207 to 209 °C

In: What does the record list as melting point for Cn1nc(-c2cnc(N)nc2-c2cccc(O)c2)ccc1=O ?
Out: 285 °C

In: Can you look up the measured melting point of CS(=O)c1nc(-c2cc(C(C)(C)C)c(O)c(C(C)(C)C)c2)c[nH]1 (centres undefined) for me?
Out: 106 to 108 °C

In: Quick one: melting point for NC(=O)N(O)CC1=NOC(c2ccc(F)cc2)C1 (centres undefined) ?
Out: 151 to 152 °C
